# system: MUC17 on LS174T colorectal cancer cells (human, UniProt Q685J3 26-4493)
# assayProcedure: flow cytometry on LS174T cells, murine antibody titrated
# Set-up: unit not given here
Returns: string. Value is 1.0 if measured Top is below 400, and 0.0 if it is greater than or equal to it.

56E8 (antibody, V domains shown) VH: QVQLKESGPGLVAPSQSLSITCTVSGFSLTAYGVHWVRQPPGKGLEWLGGIWAGGSTKSNSALMSSLSISKDNSKSQVFLKMNSLQTDDSAMYYCARALFYGYFDVWGAGTTVTVSS VL: DIVMTQSQKFMSTSVGDRVSVTCKASQSVDTNVAWYQQRPGQSPEALIFSASYRYSGVPDRFTGSGSGTDFTLTISNVQSEDLAEYFCQQYNVYPYTFGGGTNLEIK :: 1.0
11C8 (antibody, V domains shown) VH: QVQLKESGPGLVAPSQSLSITCTVSGFSLTAYGVHWVRQPPGKGLEWLGGIWAGGSTQSNSALMSRLSISKDSSKSQVFLRMNSLQTDDSAMYYCARALFYGNFDVWGAGTTVTVSS VL: DIVMTQSQKFMSTSVGDRVSVTCKASQSVDTSVAWYQQRPGQSPEALIFSASYRYSGVPDRFTGSGSGTDFTLTINNVQSEDLAEYFCQQYNSYPYTFGGGTNLEIK :: 0.0

Now turn to the next binder.
Just wondering, is Top of 15D10 (antibody, V domains shown) VH: QVQLQQPGAELVKPGASVKMSCKASGYTFTTYWMHWVKQRSGQGLEWIGVIDPSDSYTRYNQKFKDKATLTVDTSSSTAYMHLTSLTSEDSAVYYCTRSGIGNSFIMDYWGQGTSVTVSS VL: QVVLTQSPAIMPAFPGEKVTISCSASSSVIYMFWYQQKPGSSPKPWIYRTSNLASGVPARFTGSGSGTSYSLTISSMEAEDAATYYCQQYHSYPLTFGVGTKLELK below 400?
1.0
